Reference source for all entries: paper PMC3676807

Measured pEC50 values are reported for all entries that follow.
# targetSystem: SmuGalU-Δ294EcoGlgC (chimeric UDP-Glc PPase)
# Construct: entire S. mutans GalU fused to the 137 C-terminal residues of E. coli GlgC (from P295); N-terminal His-tag kept; E. coli BL21 (DE3) pLysS; homotetramer ~200 kDa
# experimentDescription: Pi release after pyrophosphatase, Malachite Green; Hill fit
# testConditions: allosteric activator; 1 mM Glc-1P, 1 mM UTP, 3 mM Mg2+, pH 8.0, 37 °C; read-out: A0.5
# pEC50 is unitless: minus log10 of the molar concentration; print number only

Consider the worked cases shown below.
CC(=O)C(=O)O    1.52
O=C(O)[C@H](O)COP(=O)(O)O    2.27

Now consider the entry below.
Can you share its pEC50? I mean this compound: O=P(O)(O)OC[C@H]1OC(O)(COP(=O)(O)O)[C@@H](O)[C@@H]1O (stereo partly drawn) 2.70
